Reference for the values: paper PMC9482650

Target: MAGI2_3, Q86UL8
Sequence (Q86UL8 600-682): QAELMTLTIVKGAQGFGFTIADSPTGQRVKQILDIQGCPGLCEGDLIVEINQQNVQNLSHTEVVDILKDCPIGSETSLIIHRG
Experiment: holdup assay
Design: key: below the threshold = too weak to quantify, mostly under pKd 3.1 to 4
Conditions: plain residues with an end cap or a label only (N-terminal biotin on a linker: ahx)
Assay Endpoint: pKd

EKQAKGDTEF [CACYBP, Q9HB71] : below the threshold
QNTDDVQTSF [ACE2, Q9BYF1] : below the threshold
QPRTWLQSPV [RTKN, Q9BST9] : below the threshold
TESNLQTSSC [CGN, Q9P2M7] : below the threshold
HTHSYIETHV [CNKSR2, Q8WXI2] : 3.98

Request: Which measured pKd value corresponds to APSRKLNTEI [TIAM1, Q13009] ?
Result: below the threshold

Request: Which measured pKd value corresponds to TEAKLTETNA [MYO18A, Q92614] ?
Result: below the threshold

Request: Which measured pKd value corresponds to TQKFRASTAL [FRMPD1, Q5SYB0] ?
Result: below the threshold

Request: Which measured pKd value corresponds to QDEKVKESYV [ABCA1, O95477] ?
Result: 4.85
